kon values by entry
target: T1, cynomolgus monkey DLL4 extracellular domain (cynomolgus monkey); test: SPR (Biacore)
T1 construct: extracellular domain; also called cynoDLL4 ECD; Cyno DLL4
Field: numeric (M⁻¹ s⁻¹). Do not append units.

>  <binder>
h1A11.A11 (antibody, V domains shown, also called h1A11.A11 VH / h1A11VL.1) VH: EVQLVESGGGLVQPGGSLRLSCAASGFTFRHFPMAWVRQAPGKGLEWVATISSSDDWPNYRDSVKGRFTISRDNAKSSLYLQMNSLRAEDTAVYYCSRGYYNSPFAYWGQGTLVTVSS VL: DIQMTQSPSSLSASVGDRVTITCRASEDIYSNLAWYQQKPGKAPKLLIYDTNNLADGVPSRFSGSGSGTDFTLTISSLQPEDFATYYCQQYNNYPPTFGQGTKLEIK

>  <kon (M⁻¹ s⁻¹)>
170000

$$$$

Fill blank: measured kon of the binder h1A11.A6 (antibody, V domains shown, also called h1A11.A6 VH / h1A11VL.1) VH: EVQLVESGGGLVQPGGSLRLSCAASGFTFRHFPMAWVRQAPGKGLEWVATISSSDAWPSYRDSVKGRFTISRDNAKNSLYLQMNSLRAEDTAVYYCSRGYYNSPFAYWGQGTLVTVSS VL: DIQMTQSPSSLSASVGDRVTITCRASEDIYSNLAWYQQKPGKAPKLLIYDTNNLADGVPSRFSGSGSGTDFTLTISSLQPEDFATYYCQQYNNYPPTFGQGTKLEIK is ____.
171000
